Every entry's value here was drawn from patent US20160272683A1.

molecular target: rat amylin receptor (rat calcitonin receptor with rat RAMP 3) (rat) (UniProt P32214); test: SPA competition vs 125I-rat amylin, membranes with rat CTR + rat RAMP3 (Assay VI)
Numbered stars: 1 amine (or outer) side, 2 acyl side, 3 side chain; on linkers, the order of the positions; unused ones are H or OH. Side chains are listed from the residue outwards. * marks the point of attachment. C20 diacid = O=C(O)CCCCCCCCCCCCCCCCCCC(=O)*; C16 diacid = O=C(O)CCCCCCCCCCCCCCC(=O)*; γGlu = O=C(O)[C@H](CCC(=O)[*:2])N[*:1]; C14 diacid = O=C(O)CCCCCCCCCCCCC(=O)*; AEEA = NCCOCCOCC(=O)O
PROPERTY NAME: IC50 (pM)

I: Ac-ASELSTAALGRLSAK([γGlu-C20 diacid])LHELATLPRTETGSGSP-NH2 [[N-terminal(acetyl), des1, 16K(C20 diacid-gGlu), 30S, 31G]mimylin]
II: Ac-ASELSTAALGRLSAELHK([γGlu-C20 diacid])LATLPRTETGSGSP-NH2 [[N-terminal(acetyl), des1, 19K(C20 diacid-gGlu), 30S, 31G]mimylin]
[ask] Which entry shows the lesser value of IC50 here, I or II ? # reply format: chosen label
[reply] I

P: {C14 diacid-γGlu}-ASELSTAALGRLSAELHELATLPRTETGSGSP-NH2 [[N-terminal(C14 diacid-gGlu), des1, 30S, 31G]mimylin]
Q: {C16 diacid}-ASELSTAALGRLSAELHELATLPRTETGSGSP-NH2 [[N-terminal(C16 diacid), des1, 30S, 31G]mimylin]
R: {C20 diacid-γGlu}-ASELSTAALGHLSAELHELATLPRTETGSGSP-NH2 [[N-terminal(C20 diacid-gGlu), des1, 12H, 30S, 31G]mimylin]
[ask] Reorder: IC50, max to min. Order the labels as requested and list them.
[reply] R, P, Q
(R: 1530 pM, P: 122 pM, Q: 64 pM)

P: Ac-ASK([γGlu-C20 diacid])LSTAALGRLSAELHELATLPRTETGSGSP-NH2 [[N-terminal(acetyl), des1, 4K(C20 diacid-gGlu), 30S, 31G]mimylin]
Q: {C16 diacid-γGlu}-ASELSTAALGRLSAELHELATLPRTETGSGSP-NH2 [[N-terminal(C16 diacid-gGlu), des1, 30S, 31G]mimylin]
R: {C20 diacid-γGlu-AEEA}-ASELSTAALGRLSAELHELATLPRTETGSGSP-NH2 [[N-terminal(C20 diacid-gGlu-OEG), des1, 30S, 31G]mimylin]
[ask] Task for the reader: rank each entry by its IC50, from the minimum upward. List the labels, following the order given in the request.
[reply] Q, P, R
(Q: 22 pM, P: 46 pM, R: 146 pM)
